Parameter growth: see the listing below.
test system: E. coli TESEC Mtb Alr; assay: growth (OD600 after 10 h); higher = more growth (less inhibition); settings: arabinose 100000 nM; compound 0.1 mM; raw OD600 reference: median of DMSO wells 0.201, cell-free background 0.041
Where a name gives a salt, the structure may show the parent alone.

# COMPOUND, growth
records = [
    ("COc1cc(Cc2cnc(N)nc2N)cc(OC)c1OC", 0.0495),
    ("Nc1ccc(S(=O)(=O)Nc2ccccn2)cc1", 0.219),
    ("CCN(CC)CCOC(=O)C1(c2ccc([N+](=O)[O-])cc2)CCCC1 [Nitrocaramiphen hydrochloride]", 0.148),
    ("c1ccc(-c2ccc(C(c3ccccc3)n3ccnc3)cc2)cc1 (centres undefined)", 0.0516),
    ("CCC1=C(C)CN(C(=O)NCCc2ccc(S(=O)(=O)NC(=O)N[C@H]3CC[C@H](C)CC3)cc2)C1=O [Glimepiride]", 0.161),
    ("Cc1cc(C(=O)NNCc2ccccc2)no1", 0.234),
    ("Nc1ccc(S(=O)(=O)Nc2ccnn2-c2ccccc2)cc1", 0.197),
    ("c1ccc(C2CN3CCSC3=N2)cc1 (centres undefined) [Tetramisole hydrochloride]", 0.242),
    ("O=C1O[C@H]([C@@H](O)CO)C(O)=C1O", 0.22),
    ("C=C1C[C@H]2[C@@H]3C=C(C)C4=CC(=O)CC[C@]4(C)[C@H]3CC[C@]2(C)[C@@]1(OC(C)=O)C(C)=O [Melengestrol acetate]", 0.166),
    ("CN1CCC(=C2c3ccccc3Sc3ccccc32)CC1 [Pimethixene maleate]", 0.0556),
    ("C#C[C@]1(O)CC[C@H]2[C@@H]3CCC4=Cc5oncc5C[C@]4(C)[C@H]3CC[C@@]21C", 0.152),
    ("CN[C@@H]1[C@@H](O)[C@@H](O[C@@H]2[C@@H](O)[C@H](O[C@H]3OC(CN)=CC[C@H]3N)[C@@H](N)C[C@H]2N)OC[C@]1(C)O [Sisomicin sulfate]", 0.0483),
    ("CCOC(=O)[C@@](C)(N)Cc1ccc(O)c(O)c1 [Methyldopate hydrochloride]", 0.116),
]

====

system: E. coli TESEC Mtb Alr; experiment: growth (OD600 after 10 h); higher = more growth (less inhibition); conditions: arabinose 10000 nM; compound 0.1 mM; raw OD600 reference: median of DMSO wells 0.264, cell-free background 0.041
Structures can show the parent of a compound that is named as a salt.
QUANTITY_KIND: growth

# COMPOUND, ASSAY_TARGET, READOUT_VALUE
rows = [
    ("COc1ccc2cc([C@H](C)C(=O)O)ccc2c1 [Naproxen]", "E. coli TESEC Mtb Alr", 0.249),
    ("CCCC(CCC)C(=O)O [Valproic acid]", "E. coli TESEC Mtb Alr", 0.272),
    ("COc1cc(C(=O)OCCCN2CCCN(CCCOC(=O)c3cc(OC)c(OC)c(OC)c3)CC2)cc(OC)c1OC [Dilazep dihydrochloride]", "E. coli TESEC Mtb Alr", 0.291),
    ("CN(C)CCC(c1ccccc1)c1ccccn1 (stereo not drawn) [Pheniramine maleate]", "E. coli TESEC Mtb Alr", 0.242),
    ("CC(C)NCC(O)c1ccc(O)c(O)c1 (single isomer, unassigned; (+)) [(+)-Isoproterenol (+)-bitartrate salt]", "E. coli TESEC Mtb Alr", 0.249),
    ("CC(=O)OCC(=O)[C@@]12OC(C)(C)O[C@@H]1C[C@H]1[C@@H]3C[C@H](F)C4=CC(=O)C=C[C@]4(C)[C@@]3(F)[C@@H](O)C[C@@]12C [Fluocinonide]", "E. coli TESEC Mtb Alr", 0.275),
    ("CC12CC3CC(C)(C1)CC(N)(C3)C2 [Memantine Hydrochloride]", "E. coli TESEC Mtb Alr", 0.237),
    ("CC(=O)O[C@]1(C(C)=O)CC[C@H]2[C@@H]3C=C(Cl)C4=CC(=O)CC[C@]4(C)[C@H]3CC[C@@]21C [Chlormadinone acetate]", "E. coli TESEC Mtb Alr", 0.0802),
    ("Clc1ccccc1C(c1ccccc1)(c1ccccc1)n1ccnc1 [Clotrimazole]", "E. coli TESEC Mtb Alr", 0.0452),
    ("CCN1CCN(c2cc3c(cc2F)c(=O)c(C(=O)O)cn3C2CC2)CC1 [Enrofloxacin]", "E. coli TESEC Mtb Alr", 0.0393),
    ("COc1cc(NC(C)CCCN)c2ncccc2c1 (stereo not drawn) [Primaquine diphosphate]", "E. coli TESEC Mtb Alr", 0.0414),
    ("CC(=O)OCC(=O)[C@@]1(O)CC[C@H]2[C@@H]3CCC4=CC(=O)CC[C@]4(C)[C@@]3(F)[C@@H](O)C[C@@]21C [Fludrocortisone acetate]", "E. coli TESEC Mtb Alr", 0.255),
    ("CC(C)Cc1ccc([C@H](C)C(=O)O)cc1 [S-(+)-ibuprofen]", "E. coli TESEC Mtb Alr", 0.24),
    ("CCOC(=O)C1=C(C)NC(C)=C(C(=O)OCC)C1c1ccccc1/C=C/C(=O)OC(C)(C)C [Lacidipine]", "E. coli TESEC Mtb Alr", 0.247),
    ("OCC(O)CN1CCN(c2ccccc2)CC1 (racemic) [Dropropizine (R,S)]", "E. coli TESEC Mtb Alr", 0.255),
    ("O=C(OCC(O)CO)c1ccccc1Nc1ccnc2cc(Cl)ccc12 (stereo not drawn) [Glafenine hydrochloride]", "E. coli TESEC Mtb Alr", 0.164),
    ("CC(=O)N(CC(C)C(=O)O)c1c(I)cc(I)c(N)c1I (stereo not drawn) [Iocetamic acid]", "E. coli TESEC Mtb Alr", 0.289),
    ("C[C@]12CC[C@@H]3c4ccc(O)cc4CC[C@H]3[C@@H]1CCC2=O [Estrone]", "E. coli TESEC Mtb Alr", 0.23),
]

====

system: E. coli TESEC Mtb Asd; experiment: growth (OD600 after 10 h); higher = more growth (less inhibition); details: arabinose induction (level): Low; compound 0.1 mM; raw OD600 reference: median of DMSO wells 0.417, cell-free background 0.041
Structures can show the parent of a compound that is named as a salt.
We use 0.4 as the dividing line for growth: on or above the line is t, below is f.

# COMPOUND, QUALITATIVE_LABEL
rows = [
    ("CC(C)[C@H]1CC[C@H](C(=O)N[C@H](Cc2ccccc2)C(=O)O)CC1 [Nateglinide]", "f"),
    ("CN1CCC(OC(c2ccccc2)c2ccccc2)CC1 [Diphenylpyraline hydrochloride]", "t"),
    ("Cc1c(Cl)cccc1Nc1ncccc1C(=O)O [Clonixin Lysinate]", "f"),
    ("C#C[C@]1(OC(C)=O)CC[C@H]2[C@@H]3CCC4=CC(=NO)CC[C@@H]4[C@H]3CC[C@@]21CC (mixture of isomers) [Norgestimate]", "f"),
    ("OCCN1CCN(CCCN2c3ccccc3Sc3ccc(Cl)cc32)CC1", "f"),
    ("NS(=O)(=O)c1cc2c(cc1Cl)N=C(CSCc1ccccc1)NS2(=O)=O [Benzthiazide]", "t"),
    ("Nc1ccc(O)c(C(=O)O)c1", "f"),
    ("CC[N+](C)(C)Cc1ccccc1Br [Bretylium tosylate]", "t"),
    ("Cc1ccc2c(c1)c1c3n2CCNC3CCC1 (stereo not drawn) [Pirlindole mesylate]", "f"),
    ("CCC(Cc1c(I)cc(I)c(N)c1I)C(=O)O (stereo not drawn)", "f"),
    ("Cc1cccc(C)c1NC(=O)C1CCCCN1C (stereo not drawn) [Mepivacaine hydrochloride]", "f"),
    ("Cc1c(Nc2ncccc2C(=O)O)cccc1C(F)(F)F", "f"),
    ("COC(=O)[C@@H]1[C@H]2C[C@H]3c4[nH]c5ccccc5c4CCN3C[C@@H]2CC[C@@H]1O [Yohimbine hydrochloride]", "f"),
    ("CC(C)(O/N=C(\\C(=O)N[C@@H]1C(=O)N2C(C(=O)[O-])=C(C[n+]3ccccc3)CS[C@H]12)c1csc(N)n1)C(=O)O [Ceftazidime pentahydrate]", "f"),
]

====

system: E. coli TESEC Mtb Alr; test: growth (OD600 after 10 h); higher = more growth (less inhibition); conditions: arabinose 10000 nM; compound 0.1 mM; raw OD600 reference: median of DMSO wells 0.264, cell-free background 0.041
Where a name gives a salt, the structure may show the parent alone.
Parameter growth: see the listing below.
QUANTITY_KIND: growth

# COMPOUND, READOUT_VALUE
rows = [
    ("Cc1c(Nc2ncccc2C(=O)O)cccc1C(F)(F)F [Flunixin meglumine]", 0.0857),
    ("COc1ccccc1O [Guaiacol]", 0.274),
    ("Fc1ccc([C@@H]2CCNC[C@H]2COc2ccc3c(c2)OCO3)cc1 [Paroxetine Hydrochloride]", 0.202),
]

The measured values listed here are drawn from the supplement of paper PMC9262897.
